Exercise: state measured Fl-geph Binding Intensity [norm.] for each of the sequences provided.
test system: FL-geph; assay: µSPOT peptide microarray binding assay with full-length geph; conditions: µSPOT full positional scan of GlyRβ 15-mer DLRSNDFSIVGSLPR, intensity normalised to wild-type sequence (= 1)
Record the value in norm., omitting the unit from your answer.

Look at this sequence and give its reported Fl-geph Binding Intensity [norm.]. DLRSNDFSIVGILPR [GlyRβ_Full_Positional_Scan_223] 1.05

Record request: Fl-geph Binding Intensity [norm.] value, item DLRSNDFSIVNSLPR [GlyRβ_Full_Positional_Scan_219, GlyR β 414-428 variant G424N] 0.41

Look up Fl-geph Binding Intensity [norm.] for this sequence: DLRSNDFSIVGSLPA [GlyRβ_Full_Positional_Scan_281] 0.9

Please look up its Fl-geph Binding Intensity [norm.]: DLRSNDFSIVGLLPR [GlyRβ_Full_Positional_Scan_224] 1.01

Need Fl-geph Binding Intensity [norm.], item DLRSNDFSIVGSLHR [GlyRβ_Full_Positional_Scan_273] 1.08

###

tested on: native geph; test: µSPOT peptide microarray binding assay with native geph from mouse brain lysate; details: µSPOT peptide microarray, GlyRβ full positional scan, native geph from mouse brain lysate; intensity normalised to wild-type sequence DLRSNDFSIVGSLPR (=1)
Binarize Native geph Binding Intensity [norm.] at 0.8 norm.; below is Met, at or above is Not met.

hey, is Native geph Binding Intensity [norm.] for DNRSNDFSIVGSLPR [GlyRβ_Full_Positional_Scan_039] lower than 0.8 norm. or not? Not met

Problem: For the sequence FLRSNDFSIVGSLPR [GlyRβ_Full_Positional_Scan_007] , is Native geph Binding Intensity [norm.] under 0.8 norm.? Met

# check: Native geph Binding Intensity [norm.] < 0.8 norm. for DLRMNDFSIVGSLPR [GlyRβ_Full_Positional_Scan_078] Not met

Regarding DLDSNDFSIVGSLPR [GlyRβ_Full_Positional_Scan_050] , kindly confirm whether its Native geph Binding Intensity [norm.] is beneath 0.8 norm.. Not met

Check if Native geph Binding Intensity [norm.] falls below 0.8 norm. for DLRSNDSSIVGSLPR [GlyRβ_Full_Positional_Scan_135, GlyR β 414-428 variant F420S] . Met

###

system: gephE; assay: µSPOT peptide microarray binding assay with recombinant gephE; conditions: µSPOT full positional scan of GlyRβ 15-mer DLRSNDFSIVGSLPR; intensity normalised to wild-type sequence (= 1)
MEASURED PARAMETER: gephE Binding Intensity [norm.]

Given the entry DLRSNDFSIVTSLPR [GlyRβ_Full_Positional_Scan_216, GlyR β 414-428 variant G424T] , what gephE Binding Intensity [norm.] was observed with gephE? 0.49 norm.

Any idea what gephE Binding Intensity [norm.] came out for DLRSNDFSIVGSHPR [GlyRβ_Full_Positional_Scan_253] on gephE? 1.08 norm.

// fetch gephE gephE Binding Intensity [norm.] for DLRSNDFSIVGSLPY [GlyRβ_Full_Positional_Scan_289] 0.87 norm.

Form field - read-out: gephE Binding Intensity [norm.]; system: gephE; submitted item: DLRSNDFSIVGDLPR [GlyRβ_Full_Positional_Scan_230] 0.52 norm.

Query for gephE: what gephE Binding Intensity [norm.] does the record show for DLRSNDFSIVGSLPD [GlyRβ_Full_Positional_Scan_290] ? 0.96 norm.

Value wanted: gephE Binding Intensity [norm.] (gephE) of entry DLRSNDFSIVGMLPR [GlyRβ_Full_Positional_Scan_238] 0.77 norm.

Record lookup: for gephE, what gephE Binding Intensity [norm.] belongs to DLRSNDFSIVHSLPR [GlyRβ_Full_Positional_Scan_213, GlyR β 414-428 variant G424H] ? 0.47 norm.

For the record DLRSNDFSIVGSLYR [GlyRβ_Full_Positional_Scan_269] , what value of gephE Binding Intensity [norm.] is listed for gephE? 0.78 norm.

Requested read-out gephE Binding Intensity [norm.], target or system gephE, entry DLRSNDFSIVGSGPR [GlyRβ_Full_Positional_Scan_242] 0.69 norm.

Param readout= gephE Binding Intensity [norm.]; system= gephE; entry= DLRSNDFSIVGSWPR [GlyRβ_Full_Positional_Scan_248] ; returns value. 0.7 norm.
